# Test system: NEK5;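 note: KINOMEscan kinase panel screen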
# Stated Conditions: concentration: 1 μM, replicates: in singlicate; n = 1
Recorded %Inh by entry

Compound	System Name	%Inh
CN(c1ccc(NC(=O)Nc2cc(C(F)(F)F)ccc2F)cc1)c1ccnc(Nc2ccc(S(N)(=O)=O)cc2)n1 [GW809893]	NEK5	31%
C[C@@H](Oc1cc(-n2cnc3cc(-c4ccnc(NCCS(C)(=O)=O)c4)ccc32)sc1C(N)=O)c1ccccc1Cl [GSK907232]	NEK5	89%
Nc1ncc(-c2ccc3nccc(-c4ccncc4)c3c2)cc1S(=O)(=O)N1CCOCC1 [GSK1627798]	NEK5	0%

Next:
Which %Inh is listed for CCCCc1nn2ncccc2c1-c1ccnc(Nc2ccc(N3CCN(C)CC3)cc2)n1 [GW684941] ?
0%
